Entries and their MIC
test system: Escherichia coli; type: cell-based; settings: strain ATCC 25922 (WT); broth microdilution, MHB, 18-20 h, 37 °C
Where no end group is shown, it is not given here.
READOUT: MIC (µg/mL)

- WVNAFANWPKRF (also: bicyclic or more (positions not given here)) [Compound 13, xenorceptide A13]: 8
- WVNAYARWTNRF (also: bicyclic or more (positions not given here)) [Compound 4, xenorceptide A4]: 8
- WINAFANWTKRI (also: bicyclic or more (positions not given here)) [Compound 3, xenorceptide A3]: 8
